Readings of pEC50 for the listed compounds
# Test system: primary human fibroblasts derived from IPF patients (LL29 cells) treated with TGF-β1
# test_name: Inhibition of the fibrotic process: αSMA staining in TGF-β1 treated primary human fibroblasts from IPF patients (LL29 cells)
# Type: cell-based
# experimental_setup: Fibroblast, 96 h, TGF-β1 20 ng/mL, 4 days, % αSMA positive cells
Note: pEC50 values are expressed as the negative base-10 logarithm of concentration in M.

Completed entries (count: 5):
{"compound": "CC(C)CC(=O)Nc1cncc(-c2ccc3[nH]nc(-c4cc5c(-c6ccccc6F)cccc5[nH]4)c3n2)c1 [Compound 58]", "parameter": "pEC50", "observed_result": 6.20}
{"compound": "c1csc(-c2cccc3[nH]c(-c4n[nH]c5ccc(-c6ccncc6)nc45)cc23)c1 [Compound 354]", "parameter": "pEC50", "observed_result": 5.84}
{"compound": "CN(C)Cc1cncc(-c2ccc3[nH]nc(-c4cc5c(-c6ccc(F)cc6)cccc5[nH]4)c3n2)c1 [Compound 41]", "parameter": "pEC50", "observed_result": 6.26}
{"compound": "Oc1cncc(-c2ccc3[nH]nc(-c4cc5c(-c6cccs6)cccc5[nH]4)c3n2)c1 [Compound 737]", "parameter": "pEC50", "observed_result": 5.69}
{"compound": "Cc1ccncc1-c1ccc2[nH]nc(-c3cc4c(N5CCN(C)CC5)cccc4[nH]3)c2n1 [Compound 229]", "parameter": "pEC50", "observed_result": 5.31}

Lookup: pEC50 / primary human fibroblasts derived from IPF patients (LL29 cells) treated with TGF-β1 / CN(C)CCNc1cc(F)cc(-c2cccc3[nH]c(-c4n[nH]c5ccc(-c6cncnc6)nc45)cc23)c1 [Compound 475]
6.51

Lookup: pEC50 / primary human fibroblasts derived from IPF patients (LL29 cells) treated with TGF-β1 / c1ccc(-c2ccc3[nH]nc(-c4cc5c(-c6ccncc6)cccc5[nH]4)c3n2)nc1 [Compound 140]
6.28

###

Readings of pEC50 for the listed molecules
# Tested on: primary human fibroblasts derived from IPF patients (LL29 cells) treated with TGF-β1
# test_name: Inhibition of the fibrotic process: αSMA staining in TGF-β1 treated primary human fibroblasts from IPF patients (LL29 cells)
# Format: cell-based
# experimental_setup: Fibroblast, 96 h, TGF-β1 20 ng/mL, 4 days, % αSMA positive cells
Note: pEC50 values are expressed as the negative base-10 logarithm of concentration in M.

{"chemical_structure": "CN1CCN(c2cccc3[nH]c(-c4n[nH]c5ccc(-c6cncc(CN7CCCCC7)c6)nc45)cc23)CC1", "assay_target": "primary human fibroblasts derived from IPF patients (LL29 cells) treated with TGF-β1", "pEC50": 5.30}
{"chemical_structure": "Cc1ccncc1-c1ccc2[nH]nc(-c3cc4c(-c5ccc(F)cc5)cccc4[nH]3)c2n1", "assay_target": "primary human fibroblasts derived from IPF patients (LL29 cells) treated with TGF-β1", "pEC50": 5.91}
{"chemical_structure": "CN(C)CCNc1cc(F)cc(-c2cccc3[nH]c(-c4n[nH]c5ccc(-c6cccnc6)nc45)cc23)c1", "assay_target": "primary human fibroblasts derived from IPF patients (LL29 cells) treated with TGF-β1", "pEC50": 7.42}

pEC50 lookup needed for CN(C)CCNc1cc(F)cc(-c2cccc3[nH]c(-c4n[nH]c5ccc(-c6cncc(CN7CCCCC7)c6)nc45)cc23)c1 , thanks.
6.11

###

Readings of EC50 for the listed compounds
# Tested on: IL-6 (THP-1 cells)
# test_name: IL-6 inhibition in LPS-stimulated THP-1 human monocyte cells (HTRF)
# Assay type: cell-based
# experimental_setup: LPS 500 ng/mL, 22 hours, IL6 HTRF

{"compound": "CN1CCN(c2cccc3[nH]c(-c4n[nH]c5ccc(-c6cncc(CN7CCCCC7)c6)nc45)cc23)CC1 [Compound 239]", "EC50": "1190 nM"}

EC50 lookup needed for c1ccc(-c2ccc3[nH]nc(-c4cc5c(-c6ccncc6)cccc5[nH]4)c3n2)nc1 [Compound 140] , thanks.
249 nM

EC50 lookup needed for c1ccc(-c2cccc3[nH]c(-c4n[nH]c5ccc(-c6cncnc6)nc45)cc23)nc1 [Compound 167] , thanks.
> 10000 nM

EC50 lookup needed for c1cnc2cc(-c3n[nH]c4ccc(-c5cn[nH]c5)nc34)[nH]c2c1 [Compound 1021] , thanks.
> 10000 nM

EC50 lookup needed for c1cc(-c2ccoc2)c2cc(-c3n[nH]c4ccc(-c5cn[nH]c5)nc34)[nH]c2c1 [Compound 711] , thanks.
72 nM

EC50 lookup needed for CN(C)Cc1cncc(-c2ccc3[nH]nc(-c4cc5c(N6CCCCC6)cccc5[nH]4)c3n2)c1 [Compound 181] , thanks.
1520 nM

EC50 lookup needed for CC(C)CC(=O)Nc1cncc(-c2ccc3[nH]nc(-c4cc5c(N6CCN(C)CC6)cccc5[nH]4)c3n2)c1 [Compound 226] , thanks.
359 nM

###

# System: IL-6 (THP-1 cells)
# test_name: IL-6 inhibition in LPS-stimulated THP-1 human monocyte cells (HTRF)
# Assay type: cell-based
# experimental_setup: LPS 500 ng/mL, 22 hours, IL6 HTRF
// classify: if (EC50 < 0.09 µM) y else n

{"chemical_structure": "c1cncc(-c2ccc3[nH]nc(-c4cc5c(N6CCCCC6)cccc5[nH]4)c3n2)c1", "label": "n"}
{"chemical_structure": "CC(C)Nc1cncc(-c2ccc3[nH]nc(-c4cc5ncccc5[nH]4)c3n2)c1", "label": "y"}

Please find the next compound below.
Find out if reported EC50 for CS(=O)(=O)NCc1cc(F)cc(-c2cccc3[nH]c(-c4n[nH]c5ccc(-c6cncc(CN7CCC(F)(F)C7)c6)nc45)cc23)c1 is less than 0.09 µM
n

###

# System: primary human fibroblasts derived from IPF patients (LL29 cells) treated with TGF-β1
# test_name: Inhibition of the fibrotic process: αSMA staining in TGF-β1 treated primary human fibroblasts from IPF patients (LL29 cells)
# Type: cell-based
# experimental_setup: Fibroblast, 96 h, TGF-β1 20 ng/mL, 4 days, % αSMA positive cells
parameter: EC50 (µM)
Provide the reading as a plain figure in µM.

EC50 lookup needed for CN(C)Cc1cncc(-c2ccc3[nH]nc(-c4cc5ccccc5[nH]4)c3n2)c1 [Compound 265] , thanks.
0.521

EC50 lookup needed for CC(C)CC(=O)Nc1cncc(-c2ccc3[nH]nc(-c4cc5c(N6CCN(C)CC6)cccc5[nH]4)c3n2)c1 [Compound 226] , thanks.
2.55

EC50 lookup needed for CN1CCN(c2cccc3[nH]c(-c4n[nH]c5ccc(-c6cncc(NC(=O)c7ccccc7)c6)nc45)cc23)CC1 [Compound 235] , thanks.
1.69

EC50 lookup needed for c1cnc2cc(-c3n[nH]c4ccc(-c5cn[nH]c5)nc34)[nH]c2c1 [Compound 1021] , thanks.
1.37

###

# Tested on: Wnt activity (Sp5-Luc reporter, SW480 colon carcinoma cells)
# test_name: Wnt activity screening assay: Sp5-Luc reporter gene in SW480 colon carcinoma cells
# Type: cell-based
# experimental_setup: Homo sapiens, overnight incubation, 10-point curve from 10 μM
parameter: EC50 (nM)
Provide the reading as a plain figure in nM.

Completed entries (count: 3):
{"chemical_structure": "CN(C)CCNc1cc(F)cc(-c2cccc3[nH]c(-c4n[nH]c5ccc(-c6cncnc6)nc45)cc23)c1", "parameter": "EC50", "observed_result": 498}
{"chemical_structure": "c1cncc(-c2ccc3[nH]nc(-c4cc5c(-c6cccnc6)cccc5[nH]4)c3n2)c1", "parameter": "EC50", "observed_result": 185}
{"chemical_structure": "Fc1ccccc1-c1cccc2[nH]c(-c3n[nH]c4ccc(-c5cncc(CN6CCCCC6)c5)nc34)cc12", "parameter": "EC50", "observed_result": 663}

The record that follows has no EC50 shown yet.
EC50 lookup needed for O=C(Nc1cncc(-c2ccc3[nH]nc(-c4cc5c(-c6ccccc6F)cccc5[nH]4)c3n2)c1)C1CC1 , thanks.
164

###

# Tested on: Wnt activity (Sp5-Luc reporter, SW480 colon carcinoma cells)
# test_name: Wnt activity screening assay: Sp5-Luc reporter gene in SW480 colon carcinoma cells
# Format: cell-based
# experimental_setup: Homo sapiens, overnight incubation, 10-point curve from 10 μM
// classify: if (EC50 < 600 nM) YES else NO

{"chemical_structure": "CN(C)CCNc1cc(F)cc(-c2cccc3[nH]c(-c4n[nH]c5ccc(-c6cncc(NC(=O)Cc7ccccc7)c6)nc45)cc23)c1", "label": "NO"}
{"chemical_structure": "CS(=O)(=O)NCc1cc(F)cc(-c2cccc3[nH]c(-c4n[nH]c5ccc(-c6cncc(CN7CCC(F)(F)C7)c6)nc45)cc23)c1", "label": "YES"}
{"chemical_structure": "c1cc(-c2ccoc2)c2cc(-c3n[nH]c4ccc(-c5cn[nH]c5)nc34)[nH]c2c1", "label": "NO"}
{"chemical_structure": "Nc1cncc(-c2ccc3[nH]nc(-c4cc5ncccc5[nH]4)c3n2)c1", "label": "YES"}
{"chemical_structure": "FC1(F)CCN(Cc2cncc(-c3ccc4[nH]nc(-c5cc6c(-c7cccs7)cccc6[nH]5)c4n3)c2)C1", "label": "NO"}
{"chemical_structure": "CN(C)CCNc1cc(F)cc(-c2cccc3[nH]c(-c4n[nH]c5ccc(-c6cccnc6)nc45)cc23)c1", "label": "YES"}

Find out if reported EC50 for Cc1ccncc1-c1ccc2[nH]nc(-c3cc4c(-c5ccc(F)cc5)cccc4[nH]3)c2n1 is less than 600 nM
NO

Find out if reported EC50 for Cc1ccncc1-c1ccc2[nH]nc(-c3cc4ccccc4[nH]3)c2n1 is less than 600 nM
NO

Find out if reported EC50 for CN(C)Cc1cncc(-c2ccc3[nH]nc(-c4cc5c(N6CCCCC6)cccc5[nH]4)c3n2)c1 is less than 600 nM
NO
